test system: Erysiphe graminis—ERYSGT; assay: Powdery Mildew of Wheat, in vivo whole plant, 24 Hour Protectant; details: Erysiphe; 100 ppm spray, wheat, 24 hour protectant; control of fungal infection vs untreated plants; read-out: ERYSGT in vivo 1 Day Protectant
experimental.endpoint: pest or weed control at 100 ppm

Example entries begin here.
* COc1ccnc(C(=O)Nc2cc(C)c(OC(=O)C(C)C)c(C)c2)c1O [Compound 455] | < 25%
* COc1ccnc(C(=O)Nc2ccc(Oc3ccc(C#N)cc3)cc2)c1O [Compound 422] | < 25%
* COc1ccnc(C(=O)Nc2ccc(Sc3ccc(C(F)(F)F)cc3)cc2)c1O [Compound 446] | < 25%
* COc1ccnc(C(=O)NC(COC(=O)C(Cc2ccccc2)C(C)O[Si](C)(C)C(C)(C)C)C(=O)OC(C)C)c1O (centres unmarked) [Compound 357] | < 25%
* COc1ccnc(C(=O)Nc2ccccc2Oc2cccc(Cl)c2)c1O [Compound 437] | < 25%

Recall the recorded pest or weed control at 100 ppm for COc1ccccc1Oc1cccc(NC(=O)c2nccc(OC)c2O)c1 [Compound 430] with Erysiphe graminis—ERYSGT and state it.
< 25%

Next record, please: CCCO[C@@H]1[C@@H](OCCC)[C@H](OCCC)CO[C@H]1NC(=O)c1nccc(OC)c1O [Compound 331]
< 25%

Next: COc1ccnc(C(=O)Nc2ccc(Oc3ccccc3Cl)cc2)c1O [Compound 441]
< 25%

Another: COc1ccnc(C(=O)Nc2cccc(Oc3ccccc3Cl)c2)c1O [Compound 439]
< 25%

Moving on to the next compound: COc1ccnc(C(=O)Nc2ccccc2Oc2ccccc2C#N)c1O [Compound 418]
< 25%

Further, for COc1ccnc(C(=O)Nc2ccc(Oc3cccc(C#N)c3)cc2)c1O [Compound 421] ?
< 25%

Please give the result for COC(=O)C(COC(=O)CCc1ccccc1)NC(=O)c1nccc(OC)c1O (centres unmarked) [Compound 344] too.
< 25%

And then C=C(C)C(=O)O[C@H]1[C@H](C)OC(=O)[C@@H](NC(=O)c2nccc(OC)c2O)COC(=O)[C@@H]1Cc1ccccc1 [Compound 386] , what is it?
25 to 74%

Consider next the compound COc1ccnc(C(=O)N[C@@H](CO)C(=O)O[C@@H](C)[C@H](OC(=O)C(C)C)[C@@H](Cc2ccccc2)C(=O)O)c1O [Compound 341] in the same way.
< 25%

What do you get for COc1ccnc(C(=O)Nc2ccc(Oc3ccccc3C)cc2)c1O [Compound 415] ?
25 to 74%

Repeat with COc1ccnc(C(=O)Nc2ccc(C(=O)Nc3cccc(C(F)(F)F)c3)cc2)c1O [Compound 449]
< 25%

What do we get for COc1ccnc(C(=O)N[C@@H]2C[C@@H](O[Si](C)(C)C(C)(C)C)O[C@@H](C)[C@@H]2OCc2ccccc2)c1O [Compound 327] ?
< 25%

COc1ccnc(C(=O)NC(COC(=O)CC(C)OC(=O)C(C)C)C(=O)OC(C)C)c1O (centres unmarked) [Compound 352] , same question.
< 25%

Another: COc1ccnc(C(=O)Nc2cccc(C(=O)Nc3ccc(C(F)(F)F)cc3)c2)c1O [Compound 450]
< 25%

Same question, COc1ccnc(C(=O)Nc2ccc(OC3CC(C)(C)OC(C)(C)C3)cc2)c1O [Compound 459] this time
25 to 74%

Next record, please: COc1ccnc(C(=O)Nc2ccc(Oc3ccc(C)cc3)cc2)c1O [Compound 417]
< 25%

Now the same for COc1ccnc(C(=O)Nc2ccc(/C(=N/O)c3cccc(C(F)(F)F)c3)cc2)c1O [Compound 407]
< 25%

# credit: patent US6706740B2
